Molecular target: T1, RPA70N (RPA70 residues 1-120) (human, UniProt P27694 1-120)
T1 construct: RPA70 (replication protein A 70 kDa subunit), human, N-terminal domain, residues 1-120; pET15b construct; 15N-enriched for some NMR samples; also called RPA70_(1-120); RPA70N domain of RPA70; source: E. coli BL21 (DE3), purified (HisTrap, thrombin cleavage, Superdex 75)
T1 sequence (P27694 1-120): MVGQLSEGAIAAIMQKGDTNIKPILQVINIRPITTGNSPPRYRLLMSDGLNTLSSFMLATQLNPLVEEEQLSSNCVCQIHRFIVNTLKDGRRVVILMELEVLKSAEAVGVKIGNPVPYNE
Assay: ITC; MicroCal VP-ITC; 400 uM PrimPol RBD (WT or variants) injected into 20 uM RPA70N; 20 mM HEPES pH 7.5, 80 mM NaCl, 3 mM beta-mercaptoethanol; single-site model
Conditions: both partners purified
test readout: Kd (µM)
State the answer as a number, implicitly in µM.

Prompt: Any idea what its Kd is? The binder is PrimPol RBD RBM-A knockout (D514R/D518R/D519R) (domain or fragment, human, UniProt Q96LW4 480-560, looked up, PrimPol, human, RBD residues 480-560 with D514R, D518R, D519R; also called PrimPol_(A-KO); RBD_(A-KO); source: E. coli BL21(pLysS), purified (Ni Sepharose, Q Sepharose, gel filtration)) TTDEADETRSNETQNPHKPSPSRLSTGASADAVWRNGIRRAYFLEATEDAELAEAAENSLLSYNSEVDEIPDELIIEVLQE
Completion: 7.8

Prompt: Could you share which Kd value was measured for PrimPol RBD RBM-B knockout (480-546 truncation) (domain or fragment, human, UniProt Q96LW4 480-546, looked up, PrimPol, human, residues 480-546 (RBD without RBM-B); also called PrimPol_(B-KO); RBD_(B-KO); source: E. coli BL21(pLysS), purified (Ni Sepharose, Q Sepharose, gel filtration)) TTDEADETRSNETQNPHKPSPSRLSTGASADAVWDNGIDDAYFLEATEDAELAEAAENSLLSYNSEV ?
Completion: 6.7
